Biological target: S1S25
readout: Tm (°C)
The response must be a number in °C with no trailing unit.

Consider the reported Tm for these binders:
binder	readout	data-value
VAMP4 (protein) VAMP4: PPKFKRHLNDDDVTGSVKSERRNLLEDDSDEEEDFFLRGPSGPRFGPRNDKIKHVQNQVDEVIDVMQENITKVIERGERLDELQDKSESLSDNATAFSNRSKQLRRQMWWRGCK	Tm	60
VAMP8 (protein) VAMP8: EEASGSAGNDRVRNLQSEVEGVKNIMTQNVERILSRGENLDHLRNKTEDLEATSEHFKTTSQKVARKFWWKNVK	Tm	57
VAMP5 (protein) VAMP5: AGKELKQCQQQADEVTEIMLNNFDKVLERHGKLAELEQRSDQLLDMSSAFSKTTKTLAQQKRWENIRCR	Tm	53

What Tm value was documented for this binder, VAMP7 (protein) VAMP7: AILFAVVARGTTILAKHAWCGGNFLEVTEQILAKIPSENNKLTYSHGNYLFHYICQDRIVYLCITDDDFERSRAFSFLNEVKKRFQTTYGSRAQTALPYAMNSEFSSVLAAQLKHHSENKSLDKVMETQAQVDELKGIMVRNIDLVAQRGERLELLIDKTENLVDSSVTFKTTSRNLARAMCMKNIK ?
56
